// data source = the supplement of paper PMC6555819

Overview of reported PBM binding z-score across a group of sequences:
- System: RARb:RXRa (NR concentration 270 nM, RXRa partner concentration 90 nM)
- PROCEDURE DETAILS: PBM binding z-score (relative to random genomic background probes); higher = stronger binding; sequences stand for … in GC…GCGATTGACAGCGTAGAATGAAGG
MEASUREMENT LABEL: PBM binding z-score

>  <ORDERED RESIDUES>
CGTCCAAGGTCATAGGACGTCAGTGAAGACAGAT

>  <RECORDED VALUE>
4.77

$$$$
>  <ORDERED RESIDUES>
ACTAGTTGGTCAGCTGAGGCCACACACAATTCGG

>  <RECORDED VALUE>
1.13

$$$$
>  <ORDERED RESIDUES>
GATACAGGGTCAAGGCCAGGGTACGCGTATTGAT

>  <RECORDED VALUE>
4.5

$$$$
>  <ORDERED RESIDUES>
ACAATTAGTTGAGACGAGGGCAACCGATAGGTTG

>  <RECORDED VALUE>
1.14

$$$$
>  <ORDERED RESIDUES>
ACTATTAGTTGACTTAGGGCACCCGATACGACGC

>  <RECORDED VALUE>
0.663

$$$$
>  <ORDERED RESIDUES>
CCTCGGAGGAAAACAGGAGGTCAGAGCTGCCAGA

>  <RECORDED VALUE>
1.53

$$$$
>  <ORDERED RESIDUES>
AGTCAAAGTTCAGGAAGAGGTAACGTAAAGCACG

>  <RECORDED VALUE>
4.45

$$$$
>  <ORDERED RESIDUES>
AGCGAAAGGTCGACGAGGTGAGTATACACCGTTT

>  <RECORDED VALUE>
3.84

$$$$
>  <ORDERED RESIDUES>
TCTTGTAGATCAAGAGGAGGTTAAGAAAGATCGA

>  <RECORDED VALUE>
0.364

$$$$
>  <ORDERED RESIDUES>
ATCGAAAGGTCGTGAGGTGGGTATACAGAAAGGC

>  <RECORDED VALUE>
4.05

$$$$
>  <ORDERED RESIDUES>
AGTCAAAGTTCATCTAGGTAGCGTAAGATATGCT

>  <RECORDED VALUE>
4.8

$$$$
>  <ORDERED RESIDUES>
TCTTGTAGATCAACAGGAGGATAAGAAAGATCGA

>  <RECORDED VALUE>
-0.284

$$$$
>  <ORDERED RESIDUES>
TCTACTAGTTGATTAGGGCAACCGAAACAGCGGA

>  <RECORDED VALUE>
0.694

$$$$
>  <ORDERED RESIDUES>
AGTCAAAGTTCACTAGGTAAGGTAAGATTCAGCT

>  <RECORDED VALUE>
4.8

$$$$
>  <ORDERED RESIDUES>
TTTTGTAGATCAAGCAGGTTAAGAAAGCCTGAGT

>  <RECORDED VALUE>
0.329

$$$$
>  <ORDERED RESIDUES>
ATCGAAGGGTCGTGAGGTGAGTATACAGAAAGGC

>  <RECORDED VALUE>
2.61

$$$$
>  <ORDERED RESIDUES>
TCCTGTAGATCAAGCAGGTTAAGAAAGCCTGAGT

>  <RECORDED VALUE>
0.0343

$$$$
>  <ORDERED RESIDUES>
CCGACTGGGGCAGAAAGGTAACCATACCATCCGG

>  <RECORDED VALUE>
0.706

$$$$
>  <ORDERED RESIDUES>
CTACCAAGGTGAACAAGGTCGTAGATTACTATTC

>  <RECORDED VALUE>
2.17

$$$$
>  <ORDERED RESIDUES>
CCGACTGGGGCAATGTTACCATAACGCACAGCCA

>  <RECORDED VALUE>
0.351

$$$$
>  <ORDERED RESIDUES>
AATACAGGGCCATCGTAGGCCAGAGTACGCACAG

>  <RECORDED VALUE>
0.931

$$$$
>  <ORDERED RESIDUES>
CACACTAGGTCACCGGAAGGTCAAAGTCCGCATG

>  <RECORDED VALUE>
5.52

$$$$
>  <ORDERED RESIDUES>
ATAGGTAGGTTACATCCGGGTCATTCAGGCTATG

>  <RECORDED VALUE>
2.39

$$$$
>  <ORDERED RESIDUES>
AATACAGGGTCAATAGGCCAGAGTAGGTACGAAT

>  <RECORDED VALUE>
4.17

$$$$
>  <ORDERED RESIDUES>
CCTAGTTGGTCAGGAGGTCACCCACCGGATATGA

>  <RECORDED VALUE>
3.61

$$$$
>  <ORDERED RESIDUES>
TCTATTAGGTGATTAGGGCAACCGAAACAGCGGA

>  <RECORDED VALUE>
1.37

$$$$
>  <ORDERED RESIDUES>
TAGCCTAGGTCAGATCTGGCCAGTATACGCTATA

>  <RECORDED VALUE>
2.98

$$$$
>  <ORDERED RESIDUES>
AGTCAAAGTGCAGGACGAGGTAACGTAAAGCACG

>  <RECORDED VALUE>
1.15

$$$$
>  <ORDERED RESIDUES>
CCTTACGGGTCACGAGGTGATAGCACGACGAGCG

>  <RECORDED VALUE>
4.27

$$$$
>  <ORDERED RESIDUES>
GCTTCTAGGTCAGGTTGGTCAGCTAACGGGTACG

>  <RECORDED VALUE>
3.53

$$$$
>  <ORDERED RESIDUES>
CCTATTTGGTCAGGAGGTCACACACCGGATATGA

>  <RECORDED VALUE>
3.94

$$$$
>  <ORDERED RESIDUES>
CCGGACAGGTGAGAAGGTAACTCAGCCTCGATTA

>  <RECORDED VALUE>
0.711

$$$$
>  <ORDERED RESIDUES>
TCTATTAGTTGATTAGAGCAACCGAAACAGCGGA

>  <RECORDED VALUE>
0.00144

$$$$
>  <ORDERED RESIDUES>
ACAGACAGGTGATGAAGGTATCTCAGGCTATCAT

>  <RECORDED VALUE>
0.0103

$$$$
>  <ORDERED RESIDUES>
TGCCAAAGTTCAAAGGTAACGTAAGTATCCACAC

>  <RECORDED VALUE>
5.19

$$$$
>  <ORDERED RESIDUES>
AGAATGCGGTTAAGATCAGGGAAACAGAATACAT

>  <RECORDED VALUE>
-0.152

$$$$
>  <ORDERED RESIDUES>
CCTAGTTTGTCAGGAGGTCACACACCGGATATGA

>  <RECORDED VALUE>
3.46

$$$$
>  <ORDERED RESIDUES>
ATACCAAGGTGATCGTGAGGTCGCTGATACTAAC

>  <RECORDED VALUE>
1.43

$$$$
>  <ORDERED RESIDUES>
CCTACTCGGCCAAAGGTCATTGATTCCAATGCTC

>  <RECORDED VALUE>
4.56

$$$$
>  <ORDERED RESIDUES>
CGAACGAGTGCATGAGTTGATAGCAAATGCCGAT

>  <RECORDED VALUE>
0.209

$$$$
>  <ORDERED RESIDUES>
CCTATTAGTTCACCATAAGGGCAACCGAAGCTCG

>  <RECORDED VALUE>
3.21

$$$$
>  <ORDERED RESIDUES>
TCTGCTAGGTCAACGATGGTCTGCTAATCTGCTA

>  <RECORDED VALUE>
3.83

$$$$
>  <ORDERED RESIDUES>
TGGAGTAGGTTAGTCGGGGCATTCAGCCAACATA

>  <RECORDED VALUE>
1.03

$$$$
>  <ORDERED RESIDUES>
AGAATGAGGTTAAGATCAGGGATACAGAATACAT

>  <RECORDED VALUE>
1.92

$$$$
>  <ORDERED RESIDUES>
GCTGCTAGGTCAGGTTAGTCAGCTAACGGGTACG

>  <RECORDED VALUE>
3.29

$$$$
>  <ORDERED RESIDUES>
CGAACTAGGTCATCCAGTACAGTGAATACATTGA

>  <RECORDED VALUE>
3.78

$$$$
>  <ORDERED RESIDUES>
GCTAGTTGGTCAATAAAAGGTCACACACCGGTCG

>  <RECORDED VALUE>
4.33

$$$$
>  <ORDERED RESIDUES>
ACAGACAGGTGAGTGAAGGTAACCCAGCTGGACG

>  <RECORDED VALUE>
0.623

$$$$
>  <ORDERED RESIDUES>
CACGAAAGGTCGGTTGAGGTGAGTATACGGATAA

>  <RECORDED VALUE>
3.18

$$$$
>  <ORDERED RESIDUES>
ATCTCTAGGTATAAGTTCAGTGAATCCCGAGGAT

>  <RECORDED VALUE>
1.73

$$$$
>  <ORDERED RESIDUES>
ATCTCTAGGTATAGTTCAGTGAAAGATCGATAGA

>  <RECORDED VALUE>
1.15

$$$$
